Listed below: kon values for each entry.
Target: 2CC-core
Assay: SPR, antigen on chip, IgG injected

>  <BINDER>
3BNC66 (antibody, V domains shown, also called 3BNC66HC; 3bnc66kc) VH: QVQLVQSGAALKKPGASLRISCQTYGYKFTDHLIYWWRQAPGQGLEWIGWIKPETGQPSYSYRFQGRVSLTRDTFEEIAFMDLRGLRSDDTAIYFCARRHTDYCVFDVWGSGSQIIVSS VL: DIQMTQSPSSLSASVGDTVTITCQTNKGYLNWYQQRRGRAPKLLMYDGSKLVTGVPSRLSGRRWGTQYNLTIGSLQPEDIATYYCQVYEFFGPGTRLDLKR

>  <kon, M⁻¹ s⁻¹>
39600

$$$$
>  <BINDER>
1NC9 (antibody, V domains shown, also called LSSNEC9HC; LSSNEC9LC) VH: QVRLVQSGAQLKKPGASVTVSCEASGYNFVNYIINWVRQTPGRSFEWVGMIDPRRGRPWSAQKFQGRLTLTRDIDSEKLYMHLSGLRGDDTAVYYCARQDSDFHDGHGHTLRGMFDSWGQGSPVTVSS VL: QVLSVSGTPGQRVIISCSGTSSNVGGNLVSWYQHLPGAAPRLLIHRDDQRPSGVPDRFSGSKSGNSASLVISGLRSDDEADYFCAAYDSTFSLPVFGGGTRLTVLS

>  <kon, M⁻¹ s⁻¹>
51100

$$$$
>  <BINDER>
8ANC134 (antibody, V domains shown, also called 8ANC134HC; 8ANC134KC) VH: QGQLVQSGGGVKKPGTSVTISCLASEYTFNEFVIHWIRQAPGQGPVWLGLIKRSGRLMTSYKFQDRLSLRRDRSTGTVFMELRGLRLDDTAVYYCARDGLGEVAPAYLYGIDAWGQGSTVIVTS VL: EIVLTQSPATLSLSPGERATLSCRASQGLNFVVWYQQKGGQAPRLLIHGPTDRAPGVPDRFSARGSGTEFSLVISSVEPDDFALYYCQEYSSTPYNFGPGTRVDRKR

>  <kon, M⁻¹ s⁻¹>
20800

$$$$
